assay-details: recombinant barcode read abundance after kanamycin selection (control-corrected) (log10(CPM+1)); higher = more efficient recombination; sequences stand for … in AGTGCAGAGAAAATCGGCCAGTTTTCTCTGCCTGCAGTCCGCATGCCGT…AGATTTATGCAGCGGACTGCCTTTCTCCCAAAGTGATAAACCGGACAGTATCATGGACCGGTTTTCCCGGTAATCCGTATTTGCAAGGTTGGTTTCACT; site = the 11-nt target
Give measured recombinant barcode read abundance (log10) for each item. Keep answers brief.
// no unit, no text: just the number

response.value for TGCTGTTCTTGGGTTCTAACCTGTTGCCT (site TGCTGTCCTAG) (field: recombinant barcode read abundance (log10)) = 0.212

Record summary for GACCACTCTTGGGTTCTAACCTGTTGCCT (site GACCACTCTAG) : reported recombinant barcode read abundance (log10) = 2.39

Field recombinant barcode read abundance (log10) (entry CTTGAATCTTGGGTTCTAACCTGTTGCCT (site CTTAAATCTAG) ) reads 0.117

Consider TGGACTACTTGGGTTCTAACCTGTTGCTC (site TGGACTACTGA) . Its measured recombinant barcode read abundance (log10) is 0.195

The reported value for GACGAAGCTTGGGTTCTAACCTGTTGCCT (site GACGAAGCTAG) in terms of recombinant barcode read abundance (log10) is 0.348

* * *

assay-details: recombinant UMI read abundance after kanamycin selection (control-corrected) (log10(CPM+1)); higher = more efficient recombination; extreme values may be limits of the assay; sequences stand for … in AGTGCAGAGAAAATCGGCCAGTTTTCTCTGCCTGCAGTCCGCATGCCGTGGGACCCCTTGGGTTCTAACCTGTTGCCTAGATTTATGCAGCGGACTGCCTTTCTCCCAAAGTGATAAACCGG…AGGTTGGTTTCACT; site = the 11-nt donor
parameter: recombinant UMI read abundance (log10)
Answer with a number only.

For this sequence ( GAGGAGACATGGACCGGTTTTCCCGGTAATCCGTATTTGCC (site GAGGAGACTGG) ), measured recombinant UMI read abundance (log10) is 1.22

Form: sequence = CGTGGCACATGGACCGGTTTTCCCGGTAATCCGTATTTGTT (site CGTGGTACTAA) ; recombinant UMI read abundance (log10) = 0.0209

Lab book: recombinant UMI read abundance (log10) of CACGGCCCATGGACCGGTTTTCCCGGTAATCCGTATTTGCT (site CACGGCCCTAT) noted as 0.636

For this sequence ( AATGTAACATGGACCGGTTTTCCCGGTAATCCGTATTTGCT (site ATTGTAACTAG) ), measured recombinant UMI read abundance (log10) is 2.07

sequence CTAGGTGCATGGACCGGTTTTCCCGGTAATCCGTATTTGAT (site CAAGGTGCTAT) , recombinant UMI read abundance (log10) observed: 1.59

For CGGTCATCATGGACCGGTTTTCCCGGTAATCCGTATTTGTT (site CGGTCATCTAA) the sequence record lists recombinant UMI read abundance (log10) as 0.27

GTGCATGCATGGACCGGTTTTCCCGGTAATCCGTATTTGTT (site GTGCATGCTAA) has a reported recombinant UMI read abundance (log10) of 2.04

// field: recombinant UMI read abundance (log10); key: CGATCGACATGGACCGGTTTTCCCGGTAATCCGTATTTGGT (site CGATCGACTAG) ; value = 0

# recombinant UMI read abundance (log10) (sequence: AGGTGCACATGGACCGGTTTTCCCGGTAATCCGTATTTGAA (site AGGTGCACTTT) ) is 0.73

* * *

assay-details: recombinant UMI read abundance after kanamycin selection (control-corrected) (log10(CPM+1)); higher = more efficient recombination; extreme values may be limits of the assay; sequences stand for … in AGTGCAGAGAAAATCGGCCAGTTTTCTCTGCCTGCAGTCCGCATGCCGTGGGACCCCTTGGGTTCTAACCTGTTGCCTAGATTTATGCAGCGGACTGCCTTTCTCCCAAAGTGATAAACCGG…AGGTTGGTTTCACT; site = the 11-nt donor
Each entry belongs to exactly one class, chosen by where its recombinant UMI read abundance (log10) falls: range 1: < 0.008; range 2: ≥ 0.008 and < 1; range 3: ≥ 1

Q) Band of CAGGAGTCATGGACCGGTTTTCCCGGTAATCCGTATTTGCC (site CGGGAGTCTGG) ?
A) range 1

Q) Which bin, given its recombinant UMI read abundance (log10), does ACAGTGCCATGGACCGGTTTTCCCGGTAATCCGTATTTGCA (site ACAGTATCTTG) occupy?
A) range 2

Q) Class? Entry: TCTTAAACATGGACCGGTTTTCCCGGTAATCCGTATTTGCA (site TCTTAAACTTG)
A) range 1

Q) For this sequence, which bin applies? GAAGATTCATGGACCGGTTTTCCCGGTAATCCGTATTTGTT (site GAAAATTCTAA)
A) range 2

Q) Looking at AGCAGAGCATGGACCGGTTTTCCCGGTAATCCGTATTTGAG (site AGCAGAGCTCT) , which class would you pick?
A) range 3

Q) Input CAAGTCACATGGACCGGTTTTCCCGGTAATCCGTATTTGCG (site CAAGTCACTCA) ; output its category
A) range 3

Q) Record GTTAGTACATGGACCGGTTTTCCCGGTAATCCGTATTTGGC (site GTTAGAACTGC) — which class?
A) range 1

Q) Please indicate the class for GTGCATGCATGGACCGGTTTTCCCGGTAATCCGTATTTGAT (site GTGCATGCTAC) based on its recombinant UMI read abundance (log10).
A) range 2

Q) Where would TCCTACTCATGGACCGGTTTTCCCGGTAATCCGTATTTGCA (site TCGTACTCTTG) land among the classes by reported recombinant UMI read abundance (log10)?
A) range 1

Q) Quick check: band for ATGATCCCATGGACCGGTTTTCCCGGTAATCCGTATTTGCC (site ATGATCCCTGG)
A) range 1

Q) Which band does GAGCTAGCATGGACCGGTTTTCCCGGTAATCCGTATTTGAA (site AAGCTAGCTTT) fall in?
A) range 3

Q) Lab log: GATTGGACATGGACCGGTTTTCCCGGTAATCCGTATTTGAA (site GATTGGACTAT) — assign recombinant UMI read abundance (log10) category
A) range 2

Q) Lab note: sort CGGTGCGCATGGACCGGTTTTCCCGGTAATCCGTATTTGCC (site CGGTGCGCTGG) into the matching recombinant UMI read abundance (log10) band.
A) range 3

Q) Given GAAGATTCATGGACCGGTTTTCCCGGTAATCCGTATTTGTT (site GAAGAATCTAA) , name the class its recombinant UMI read abundance (log10) places it in.
A) range 3

Q) Bin? GTTTGAGCATGGACCGGTTTTCCCGGTAATCCGTATTTGCA (site GTTAGAGCTTG)
A) range 3

Q) Place this sequence in its band: TACAGCGCATGGACCGGTTTTCCCGGTAATCCGTATTTGGC (site TACAGCGCTGC)
A) range 3

Q) Input GACTCCTCATGGACCGGTTTTCCCGGTAATCCGTATTTGCC (site TACTCCTCTGG) ; output its category
A) range 3

Q) Could you tell me which band TGCTAGGCATGGACCGGTTTTCCCGGTAATCCGTATTTGCT (site TGCTAGGCTAT) belongs to?
A) range 1

* * *

assay-details: recombinant UMI read abundance after kanamycin selection (control-corrected) (log10(CPM+1)); higher = more efficient recombination; extreme values may be limits of the assay; sequences stand for … in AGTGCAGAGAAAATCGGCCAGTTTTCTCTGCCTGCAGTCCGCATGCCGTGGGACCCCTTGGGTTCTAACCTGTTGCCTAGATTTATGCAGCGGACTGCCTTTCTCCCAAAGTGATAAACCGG…AGGTTGGTTTCACT; site = the 11-nt donor
parameter: recombinant UMI read abundance (log10)
Returns: the value as a bare number; no unit string appended.

recombinant UMI read abundance (log10) recorded for this sequence, ACAATGTCATGGACCGGTTTTCCCGGTAATCCGTATTTGCG (site ACAATGTCTCG) , is 3.04

GET /value?item= CTGGTATCATGGACCGGTTTTCCCGGTAATCCGTATTTGAC (site CTCGTATCTGT) &field=recombinant UMI read abundance (log10) returns 0

Looking up CGATCGTCATGGACCGGTTTTCCCGGTAATCCGTATTTGAT (site CGATCATCTAG) , I see its recombinant UMI read abundance (log10) listed as 0.00648

TGCCGACCATGGACCGGTTTTCCCGGTAATCCGTATTTGTT (site TGCCGACCTAA) has a reported recombinant UMI read abundance (log10) of 0.0263

Lab note: GAGCTCCCATGGACCGGTTTTCCCGGTAATCCGTATTTGAT (site GAGCTCGCTAT) gave recombinant UMI read abundance (log10) of 0

The measured recombinant UMI read abundance (log10) associated with TTAGTCACATGGACCGGTTTTCCCGGTAATCCGTATTTGGG (site TTAGTCACTCC) reads 0.0104

recombinant UMI read abundance (log10) recorded for this sequence, CGGAACCCATGGACCGGTTTTCCCGGTAATCCGTATTTGTT (site CGGAACCCTAA) , is 0.964

Short answer for AAACTGTCATGGACCGGTTTTCCCGGTAATCCGTATTTGTT (site AAACTGTCTAA) : recombinant UMI read abundance (log10) was 1.97

response.value for GGTTCGTCATGGACCGGTTTTCCCGGTAATCCGTATTTGTT (site GGTACGTCTAA) (field: recombinant UMI read abundance (log10)) = 0.0147

recombinant UMI read abundance (log10) measured on CAAGTCACATGGACCGGTTTTCCCGGTAATCCGTATTTGGG (site CTAGTCACTCC) = 0.0139

The measured recombinant UMI read abundance (log10) associated with AGGTTCCCATGGACCGGTTTTCCCGGTAATCCGTATTTGTC (site AGGTTCCCTCA) reads 0.0034

Quick note, recombinant UMI read abundance (log10) for TGCAATTCATGGACCGGTTTTCCCGGTAATCCGTATTTGCC (site TACAATTCTGG) landed at 0

Value of measured recombinant UMI read abundance (log10) for the entry TTTCTAGCATGGACCGGTTTTCCCGGTAATCCGTATTTGTA (site TTTCTAGCTTA) : 0.542

What the record says about TAAAGTCCATGGACCGGTTTTCCCGGTAATCCGTATTTGAA (site TAAAGTCCTTC) : recombinant UMI read abundance (log10) is 0.144

Value of recombinant UMI read abundance (log10) reported for the sequence GCGAAAACATGGACCGGTTTTCCCGGTAATCCGTATTTGTT (site GCGAAAACTAA) is 2.31

Looking up CGCCATCCATGGACCGGTTTTCCCGGTAATCCGTATTTGTT (site CGCCATCCTAA) , I found its recombinant UMI read abundance (log10) recorded as 0.44

Memo: GCGTCGGCATGGACCGGTTTTCCCGGTAATCCGTATTTGGA (site GCGTCGGCTTC) , reported recombinant UMI read abundance (log10): 0.519

Record GTTTAGTCATGGACCGGTTTTCCCGGTAATCCGTATTTGAT (site GTTTAGTCTAT) , field recombinant UMI read abundance (log10): 1.59

GET /value?item= TCGTTAGCATGGACCGGTTTTCCCGGTAATCCGTATTTGTG (site GCGTTAGCTCA) &field=recombinant UMI read abundance (log10) returns 0.109

Reported recombinant UMI read abundance (log10) for GGCCTCCCATGGACCGGTTTTCCCGGTAATCCGTATTTGTT (site GGCCTCCCTAA) was 0.00625

Noted for GTAGTCGCATGGACCGGTTTTCCCGGTAATCCGTATTTGCG (site GTAGTCGCTCG) : its recombinant UMI read abundance (log10) reads 1.61

CACTACTCATGGACCGGTTTTCCCGGTAATCCGTATTTGCC (site CACTTCTCTGG) yielded recombinant UMI read abundance (log10) of 0

// recombinant UMI read abundance (log10) value for GTAGGTACATGGACCGGTTTTCCCGGTAATCCGTATTTGGC (site GTAGGTACTGG) : 0.159

Entry TGTGGAACATGGACCGGTTTTCCCGGTAATCCGTATTTGTT (site CGTGGAACTAA) ; recombinant UMI read abundance (log10) = 0.0659

So for ACCTAGCCATGGACCGGTTTTCCCGGTAATCCGTATTTGCC (site TCCTAGCCTGG) , the logged recombinant UMI read abundance (log10) turned out to be 0

Record summary for GCCACACCATGGACCGGTTTTCCCGGTAATCCGTATTTGTA (site GCCACACCTTA) : reported recombinant UMI read abundance (log10) = 0.0107

Lab note: measured recombinant UMI read abundance (log10) of TTGGAGGCATGGACCGGTTTTCCCGGTAATCCGTATTTGTG (site ATGGAGGCTCA) was 0.342

Value of measured recombinant UMI read abundance (log10) for the entry GGTGTTACATGGACCGGTTTTCCCGGTAATCCGTATTTGTT (site GGTGTTACTAA) : 0.51

recombinant UMI read abundance (log10) reported for this sequence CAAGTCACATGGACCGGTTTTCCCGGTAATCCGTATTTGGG (site CATGTCACTCC) : 0.0038

For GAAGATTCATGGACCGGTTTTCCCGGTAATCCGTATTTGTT (site GAAGATTCTAC) the sequence record lists recombinant UMI read abundance (log10) as 0.242

recombinant UMI read abundance (log10) measured on CGAGTACCATGGACCGGTTTTCCCGGTAATCCGTATTTGAC (site CTAGTATCTGT) = 0

Recorded recombinant UMI read abundance (log10) (sequence AATGTGTCATGGACCGGTTTTCCCGGTAATCCGTATTTGAC (site AAAGTGTCTGT) ): 0

So, GGAGTGGCATGGACCGGTTTTCCCGGTAATCCGTATTTGGA (site GGAGTGGCTAC) ? Its recombinant UMI read abundance (log10) was 0.0116

Note to self: recombinant UMI read abundance (log10) recorded for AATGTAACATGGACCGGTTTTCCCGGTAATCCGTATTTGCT (site AATGTGACTAG) was 0.422

Short answer for CTGTCAGCATGGACCGGTTTTCCCGGTAATCCGTATTTGGT (site CTGTCAGCTAC) : recombinant UMI read abundance (log10) was 0.563

Just so you know, measured recombinant UMI read abundance (log10) for CTCCTACCATGGACCGGTTTTCCCGGTAATCCGTATTTGCT (site CTACTACCTAG) came out at 0
